Cited source for all entries: patent US7678803B2

Test system: HSP-90 (heat shock protein 90)
Assay: Determination of affinity for HSP-90 (elution from purine affinity column); note: key: +++: very high; ++: high; +: moderate
Conditions: relative binding affinity to HSP-90
OBSERVED_PROPERTY: Affinity

Below, 6 compounds whose answers are already recorded.
>  <SMILES_STR>
Cc1nn(-c2ccc3c(N)ncnc3c2F)c2c1C(=O)CC(C)(C)C2

>  <OBSERVED_PROPERTY>
Affinity

>  <REPORTED_VALUE>
+++

$$$$
>  <SMILES_STR>
COc1cc(-n2cc(C)c3c2CC(C)(C)CC3=O)cc2ncnc(N)c12

>  <OBSERVED_PROPERTY>
Affinity

>  <REPORTED_VALUE>
++

$$$$
>  <SMILES_STR>
Cc1cn(-c2cc(F)c3c(N)ncnc3c2)c2c1C(=O)CC(C)(C)C2

>  <OBSERVED_PROPERTY>
Affinity

>  <REPORTED_VALUE>
+

$$$$
>  <SMILES_STR>
Cc1nn(-c2ccc3c(N)ncnc3c2)c2c1C(=O)CCC2

>  <OBSERVED_PROPERTY>
Affinity

>  <REPORTED_VALUE>
+

$$$$
>  <SMILES_STR>
C#CCOc1cc(-n2cc(C)c3c2CC(C)(C)CC3=O)cc2ncnc(N)c12

>  <OBSERVED_PROPERTY>
Affinity

>  <REPORTED_VALUE>
+

$$$$
>  <SMILES_STR>
CCCCOc1c(-n2cc(C)c3c2CC(C)(C)CC3=O)ccc2c(N)ncnc12

>  <OBSERVED_PROPERTY>
Affinity

>  <REPORTED_VALUE>
+++

$$$$

Looking for the measured Affinity of Cc1nc(N)c2ccc(-n3cc(C)c4c3CC(C)(C)CC4=O)cc2n1 , can you help? +++

Another compound to look at: Cc1cn(-c2ccc3c(N)ncnc3c2SCCO)c2c1C(=O)CC(C)(C)C2 +++

Would you kindly repeat that for Cc1nn(-c2ccc3c(N)ncc(C#N)c3c2)c2c1C(=O)CC(C)(C)C2 ? ++
